# ASSAY_TARGET: humane Tyrosinase (Homo sapiens)
# Sequence (P14679 19-529): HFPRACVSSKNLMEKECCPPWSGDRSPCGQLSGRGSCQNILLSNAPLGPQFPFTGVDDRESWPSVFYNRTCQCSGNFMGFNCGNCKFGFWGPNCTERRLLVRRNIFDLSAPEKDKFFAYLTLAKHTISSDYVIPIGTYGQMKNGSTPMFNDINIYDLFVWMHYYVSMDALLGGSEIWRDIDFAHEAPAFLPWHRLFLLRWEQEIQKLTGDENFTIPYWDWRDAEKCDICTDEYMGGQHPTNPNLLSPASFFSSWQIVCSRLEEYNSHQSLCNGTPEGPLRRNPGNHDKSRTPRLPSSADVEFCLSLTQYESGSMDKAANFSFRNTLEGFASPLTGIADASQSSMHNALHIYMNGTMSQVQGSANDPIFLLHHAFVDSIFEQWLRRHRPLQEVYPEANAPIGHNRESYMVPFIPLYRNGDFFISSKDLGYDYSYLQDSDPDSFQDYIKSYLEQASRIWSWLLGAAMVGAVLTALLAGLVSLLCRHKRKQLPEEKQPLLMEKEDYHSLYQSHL
# TEST_PROTOCOL: Enzyme test: conversion of L-DOPA to L-dopaquinone by human tyrosinase, MBTH detection, absorption at 490 nm
# PROTOCOL_CONDITIONS: Inhibition der Tyrosinaseaktivität, substrate L-DOPA
Would you kindly list log10 of EC50 for each of these molecules?
Hey, these are logged values: log10 of EC50, µM being the unit before logging.

Please look at this molecule and report its log10 of EC50: COC(=O)c1cc(O)ccc1O [Methyl 2,5-Dihydroxybenzoat]
3.39

Please look at this molecule and report its log10 of EC50: C=COC(=O)C=Cc1ccccc1 [Vinyl cinnamat]
3.42

Please look at this molecule and report its log10 of EC50: O=C(O)/C=C/c1cccs1 [(E)-3-(thiophen-2-yl)acrylsäure]
1.51

Batch lookup, log10 of EC50 per entry.
1. C=CCOC(=O)C=Cc1ccccc1 [Allyl cinnamat]
2. O=C(OCc1ccccc1)c1ccccc1O [Benzyl 2-hydroxybenzoat]
3. COc1ccc(C(=O)O)c(O)c1 [2-Hydroxy-4-methoxy Benzoesäure]
4. COc1ccc(C=CC(=O)OCCC(C)C)cc1 [Isoamyl p-Methoxycinnamat]
5. COc1cc(/C=C/C(=O)O)ccc1O [trans-Ferulasäure]
6. CC1CCC(=CC(=O)O)CC1 (stereo not shown) [2-(4-Methyl-1-cyclohexyliden)essigsäure]

3.37
2.58
3.42
2.55
3.34
3.82
